// data source = DBAASP

Test system: Staphylococcus aureus
Assign labels as follows, please: 1 for MIC below 30 µM; 0 for MIC equal to or exceeding 30 µM.

Worked examples, 3 molecules total:
molecule	target-system	class-name
CC[C@H](C)[C@H](NC(=O)CN)C(=O)N[C@@H](CC(C)C)C(=O)N[C@@H](CO)C(=O)N[C@@H](CO)C(=O)N[C@@H](CC(C)C)C(=O)N[C@@H](CC(C)C)C(=O)N[C@@H](CCCCN)C(=O)N[C@@H](CCCCN)C(=O)N[C@@H](Cc1c[nH]c2ccccc12)C(=O)N[C@@H](CCCCN)C(=O)N[C@@H](CCCCN)C(=O)N[C@H](C(=O)N[C@H](C(=O)N[C@@H](C)C(=O)N[C@@H](CCCCN)C(N)=O)[C@@H](C)CC)[C@@H](C)CC [GILSSLLKKWKKIIAK]	Staphylococcus aureus	1
CC[C@H](C)[C@H](NC(=O)[C@H](CCCCN)NC(=O)[C@H](CCCCN)NC(=O)[C@H](CC(C)C)NC(=O)[C@H](CC(=O)O)NC(=O)[C@@H](NC(=O)[C@@H](N)Cc1ccccc1)C(C)C)C(=O)N[C@@H](C)C(=O)N[C@@H](CC(N)=O)C(=O)N[C@H](C(=O)N[C@H](C(=O)N[C@@H](CC(N)=O)C(=O)N[C@@H](CO)C(=O)N[C@H](C(=O)N[C@@H](Cc1ccccc1)C(N)=O)[C@@H](C)CC)[C@@H](C)CC)[C@@H](C)CC [FVDLKKIANIINSIF]	Staphylococcus aureus	1
NC(=O)[C@H](CCCN=C(N)N)NC(=O)[C@H](CCCN=C(N)N)NC(=O)[C@H](Cc1c[nH]c2ccccc12)NC(=O)[C@@H]1CCCN1C(=O)[C@H](Cc1c[nH]c2ccccc12)NC(=O)[C@H](CCCN=C(N)N)NC(=O)[C@@H]1CCCN1C(=O)[C@H](Cc1c[nH]c2ccccc12)NC(=O)[C@H](CCCN=C(N)N)NC(=O)[C@H](Cc1c[nH]c2ccccc12)NC(=O)[C@@H]1CCCN1C(=O)[C@H](CCCN=C(N)N)NC(=O)[C@@H](N)CCCN=C(N)N [RRPWRWPRWPWRR]	Staphylococcus aureus	0

Input CC(C)C[C@H](NC(=O)[C@H](CCCCN)NC(=O)[C@H](Cc1ccccc1)NC(=O)[C@@H](NC(=O)[C@@H](NC(=O)CNC(=O)[C@H](CC(C)C)NC(=O)[C@@H](N)Cc1ccccc1)C(C)C)C(C)C)C(=O)N[C@@H](C)C(=O)N[C@@H](CO)C(=O)N[C@@H](CCCCN)C(=O)N[C@H](C(=O)N[C@@H](Cc1ccccc1)C(=O)NCC(=O)N[C@@H](C)C(=O)N[C@H](C(=O)N[C@@H](Cc1ccccc1)C(=O)NCC(=O)N[C@@H](CCCCN)C(=O)N[C@H](C(=O)O)C(C)C)C(C)C)C(C)C [FLGVVFKLASKVFGAVFGKV] ; condition: MIC strictly below 30 µM. Does it hold?
1

Input CC(C)C[C@H](NC(=O)[C@H](CC(C)C)NC(=O)[C@H](CCCCN)NC(=O)[C@H](CCCCN)NC(=O)[C@H](CC(C)C)NC(=O)[C@H](CCCCN)NC(=O)[C@H](CCCCN)NC(=O)[C@H](CC(C)C)NC(=O)[C@H](CC(C)C)NC(=O)[C@H](CCCCN)NC(=O)[C@H](CCCN=C(N)N)NC(=O)[C@H](Cc1c[nH]c2ccccc12)NC(=O)[C@H](CCCCN)NC(=O)[C@@H](N)CCCCN)C(N)=O [KKWRKLLKKLKKLL] ; condition: MIC strictly below 30 µM. Does it hold?
1

Input CC[C@H](C)[C@H](NC(=O)[C@H](CC(C)C)NC(=O)[C@H](CO)NC(=O)[C@@H](N)CCCN=C(N)N)C(=O)N[C@H](C(=O)N[C@@H](Cc1cnc[nH]1)C(=O)N[C@@H](CCC(N)=O)C(=O)N[C@@H](CCCN=C(N)N)C(=O)N[C@@H](CC(C)C)C(=O)N[C@@H](Cc1ccccc1)C(N)=O)C(C)C [RSLIVHQRLF] ; condition: MIC strictly below 30 µM. Does it hold?
0

Input CC[C@H](C)[C@H](NC(=O)[C@H](CCCCN)NC(=O)[C@H](CCCCN)NC(=O)[C@H](Cc1c[nH]c2ccccc12)NC(=O)[C@H](CC(N)=O)NC(=O)[C@@H](N)C(C)C)C(=O)N[C@@H](CC(C)C)C(=O)NCC(=O)N[C@@H](CCCCN)C(=O)N[C@H](C(=O)N[C@H](C(=O)N[C@@H](CCCCN)C(=O)N[C@H](C(=O)N[C@@H](C)C(=O)N[C@@H](CCCCN)C(N)=O)C(C)C)[C@@H](C)CC)[C@@H](C)CC [VNWKKILGKIIKVAK] ; condition: MIC strictly below 30 µM. Does it hold?
1

Input CC[C@H](C)[C@H](NC(=O)[C@@H](NC(=O)CNC(=O)[C@H](C)NC(=O)[C@@H](NC(=O)[C@H](CCCCN)NC(=O)[C@H](CCCCN)NC(=O)[C@H](CC(C)C)NC(=O)[C@H](Cc1ccccc1)NC(=O)[C@H](CC(=O)O)NC(=O)[C@@H](NC(=O)[C@H](Cc1ccccc1)NC(=O)CN)C(C)C)C(C)C)[C@@H](C)O)C(=O)N[C@@H](C)C(=O)N[C@@H](CC(N)=O)C(=O)N[C@H](C(=O)N[C@H](C(=O)N[C@H](C(N)=O)[C@@H](C)O)C(C)C)C(C)C [GFVDFLKKVAGTIANVVT] ; condition: MIC strictly below 30 µM. Does it hold?
0

Input CC[C@H](C)[C@H](NC(=O)[C@H](CC(C)C)NC(=O)[C@H](C)NC(=O)[C@@H]1CCCN1C(=O)[C@H](CC(C)C)NC(=O)CN)C(=O)N[C@@H](CO)C(=O)N[C@@H](Cc1c[nH]c2ccccc12)C(=O)N[C@@H](CO)C(=O)N[C@@H](CCCCN)C(=O)N[C@@H](CCCN=C(N)N)C(=O)N[C@@H](CCCCN)C(=O)N[C@@H](CCCN=C(N)N)C(=O)N[C@@H](CCC(N)=O)C(=O)N[C@@H](CCC(N)=O)C(N)=O [GLPALISWSKRKRQQ] ; condition: MIC strictly below 30 µM. Does it hold?
0

----------
Listed here: items and their measured MIC.
Test system: Candida albicans ATCC 90028

Answered cases to consult:
smiles-input	MIC
CC[C@H](C)[C@H](NC(=O)CNC(=O)[C@H](CO)NC(=O)[C@H](CC(C)C)NC(=O)[C@H](CC(C)C)NC(=O)CN)C(=O)N[C@@H](CC(C)C)C(=O)NCC(=O)N[C@@H](C)C(=O)NCC(=O)N[C@@H](CCCCN)C(=O)N[C@@H](CC(N)=O)C(=O)N[C@H](C(=O)N[C@H](C(=O)N[C@H]1CSSC[C@@H](C(=O)O)NC(=O)[C@H](CC(C)C)NC(=O)CNC(=O)[C@H](CO)NC(=O)[C@H](CC(C)C)NC(=O)CNC1=O)C(C)C)[C@@H](C)CC	≥ 100 µM
CC[C@H](C)[C@H](NC(=O)[C@H](CO)NC(=O)[C@H](CO)NC(=O)[C@H](CC(C)C)NC(=O)[C@@H](N)Cc1ccccc1)C(=O)NCC(=O)N[C@@H](CCCCN)C(=O)N[C@H](C(=O)N[C@@H](CC(C)C)C(=O)NCC(=O)N[C@@H](CC(N)=O)C(=O)N[C@@H](CC(C)C)C(=O)N[C@@H](CC(C)C)C(N)=O)[C@@H](C)CC	≥ 160 µM

Could you now look at the following molecule, please?
Find the measured MIC: item `CC(C)C[C@H](NC(=O)[C@H](C)NC(=O)[C@H](CCCCN)NC(=O)[C@H](C)NC(=O)[C@H](C)NC(=O)CNC(=O)[C@H](CCCCN)NC(=O)[C@H](CC(C)C)NC(=O)[C@H](CC(C)C)NC(=O)[C@H](CC(=O)O)NC(=O)[C@H](CCCCN)NC(=O)[C@H](Cc1ccccc1)NC(=O)CN)C(=O)N[C@H](C(=O)N[C@@H](CCCCN)C(=O)N[C@H](C(=O)N[C@H](C(=O)N[C@@H](CC(C)C)C(=O)N[C@@H](Cc1ccccc1)C(=O)O)C(C)C)[C@@H](C)O)C(C)C` , target or system Candida albicans ATCC 90028.
≥ 100 µM

----------
The following compounds each carry a recorded MIC for Staphylococcus aureus ATCC 25923.

Answered cases to consult:
compound	target-system	observed-result
CC[C@H](C)[C@H](NC(=O)[C@H](CCCCN)NC(=O)[C@H](CCCCN)NC(=O)[C@@H](NC(=O)[C@H](CCCCN)NC(=O)[C@H](C)NC(=O)[C@H](C)NC(=O)[C@H](CC(C)C)NC(=O)[C@H](CCCN=C(N)N)NC(=O)[C@H](CCCCN)NC(=O)[C@H](CC(C)C)NC(=O)[C@@H](NC(=O)[C@@H](N)CCCCN)[C@@H](C)CC)[C@@H](C)CC)C(=O)N[C@@H](CC(C)C)C(N)=O [KILKRLAAKIKKIL]	Staphylococcus aureus ATCC 25923	> 32 µM
CC(C)C[C@H](N)C(=O)N[C@@H](CCCCN)C(=O)N[C@@H](CCCCN)C(=O)N[C@@H](C)C(=O)N[C@@H](CCCCN)C(=O)N[C@@H](CCCCN)C(=O)N[C@@H](Cc1ccccc1)C(=O)NCC(=O)N[C@@H](CCCCN)C(=O)N[C@@H](C)C(=O)N[C@@H](Cc1ccccc1)C(=O)N[C@H](C(N)=O)C(C)C [LKKAKKFGKAFV]	Staphylococcus aureus ATCC 25923	> 375 µM

Find the measured MIC: item CC(C)[C@H](NC(=O)CNC(=O)[C@@H](N)Cc1cnc[nH]1)C(=O)N[C@@H](CO)C(=O)NCC(=O)N[C@@H](Cc1cnc[nH]1)C(=O)NCC(=O)N[C@@H](CCC(N)=O)C(=O)N[C@@H](Cc1cnc[nH]1)C(=O)NCC(=O)N[C@H](C(=O)N[C@@H](Cc1cnc[nH]1)C(=O)NCC(=O)O)[C@@H](C)O [HGVSGHGQHGTHG] , target or system Staphylococcus aureus ATCC 25923.
6.31 µM
